- Target Entity: Adenosine receptor A1 (Cavia porcellus, UniProt P47745)
- Sequence (P47745 whole entry): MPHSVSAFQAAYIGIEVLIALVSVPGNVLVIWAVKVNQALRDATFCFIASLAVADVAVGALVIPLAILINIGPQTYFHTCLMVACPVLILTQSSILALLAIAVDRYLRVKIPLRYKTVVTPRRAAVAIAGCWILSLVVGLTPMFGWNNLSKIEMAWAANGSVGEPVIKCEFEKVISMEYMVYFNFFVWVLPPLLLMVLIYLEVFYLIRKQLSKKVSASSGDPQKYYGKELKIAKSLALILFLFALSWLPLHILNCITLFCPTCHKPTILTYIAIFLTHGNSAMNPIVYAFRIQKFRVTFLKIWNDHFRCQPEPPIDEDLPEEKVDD
- Assay Text: Binding affinity against adenosine A1 receptor of cerebral cortex using [3H]CPX as a radioligand
- Assay type: tissue-based
Parameter Measured: Ki (µM)

Recorded Ki, per entry:
[
  {
    "Smiles Entry": "CCCn1c(=O)n(C)c(=O)c2c1ncn2CC(C)=O",
    "Result Value": 95.7
  },
  {
    "Smiles Entry": "C=CCn1cnc2c1c(=O)n(C)c(=O)n2CCC",
    "Result Value": 15.4
  },
  {
    "Smiles Entry": "CCCn1c(=O)n(CCC#N)c(=O)c2[nH]cnc21",
    "Result Value": 15.9
  },
  {
    "Smiles Entry": "CCCn1c(=O)n(C)c(=O)c2c1ncn2CCC#N",
    "Result Value": 88.6
  },
  {
    "Smiles Entry": "CCCn1c(=O)n(CCN(C)C)c(=O)c2[nH]cnc21",
    "Result Value": 4.3
  }
]

[a] CCCn1c(=O)n(C)c(=O)c2c1ncn2CCOC
[b] CCCn1c(=O)n(C)c(=O)c2c1ncn2CCOCC
Ask: When a and b are compared, which has the higher number for Ki? // return label of chosen record
Result: b
(b: 24.3 µM, a: 12.4 µM)

###

- Target Entity: UniProt P47745
- Assay Text: Binding affinity against adenosine A1 receptor of cerebral cortex using [3H]CPX as a radioligand
- Assay type: tissue-based
Parameter Measured: Ki (µM)

Recorded Ki, per entry:
[
  {
    "Compound": "CCCn1c(=O)n(CCO)c(=O)c2[nH]cnc21",
    "Target Entity": "UniProt P47745",
    "Parameter Measured": "Ki",
    "Result Value": 50
  },
  {
    "Compound": "CCCn1c(=O)n(CC(N)=O)c(=O)c2[nH]cnc21",
    "Target Entity": "UniProt P47745",
    "Parameter Measured": "Ki",
    "Result Value": 39.7
  },
  {
    "Compound": "CCCn1c(=O)c2nc[nH]c2n(CCC)c1=O",
    "Target Entity": "UniProt P47745",
    "Parameter Measured": "Ki",
    "Result Value": 0.21
  }
]

[P] CCCn1c(=O)n(C)c(=O)c2c1ncn2CC#N
[Q] C=CCCn1c(=O)c2[nH]cnc2n(CCC)c1=O
Ask: Smaller Ki value, P vs Q ? // return label of chosen record
Result: Q
(Q: 0.06 µM, P: 6.6 µM)

[a] CCCn1c(=O)n(C)c(=O)c2c1ncn2CCCO
[b] CCCn1c(=O)n(CCCN(C)C)c(=O)c2[nH]cnc21
[c] CCCn1c(=O)n(CC#N)c(=O)c2[nH]cnc21
Ask: Order each entry by recorded Ki, climbing from the minimum. I would appreciate it if you listed the labels in the requested order.
Result: c, b, a

[A] CCCn1c(=O)n(CCC(C)=O)c(=O)c2[nH]cnc21
[B] CCCn1c(=O)n(CCCCC(C)=O)c(=O)c2[nH]cnc21
[C] CCCn1c(=O)n(C)c(=O)c2c1ncn2CCO
[D] CCCn1c(=O)n(CCOCC)c(=O)c2[nH]cnc21
[E] C=CCCn1cnc2c1c(=O)n(C)c(=O)n2CCC
Ask: Please list these compounds in decreasing order of Ki. I would appreciate it if you listed the labels in the requested order.
Result: C, B, A, E, D
(C: 41.4 µM, B: 23.1 µM, A: 11.2 µM, E: 6 µM, D: 1.9 µM)
